B1: SPOPL (parent)
chain: PDDKLTLFCEVSVVQDSVNISGHT

# Variants of: B1
# testName: protein stability index of a GFP-peptide fusion (GPS, HEK-293T) (PSI 1-6); higher = more stable;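 note: lentivirally expressed fusions sorted by FACS into six bins by GFP to DsRed ratio, PSI derived from sequencing read proportions per bin multiplied by bin number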
# reportedConditions: c terminus: a fixed tail appended
assayReadout: protein stability index

T24N    2.97
V18R    2.03
H23D    3.06
F8H    3.64
N19C    1.05
S12I    2.11
P1A    1.81
D2L    1.46
V11E    4.81
V14K    2.7
V14C    1.66
L7K    4.78
V11S    4.47
C9W    2.62
S12E    2.23
D16A    2.28
D2K    2.02
P1T    2
D3C    1.75
V11I    1.95
V13M    2.12
V18D    3.67
T24H    2.4
T6K    3.34
Q15P    3.1
C9R    4.54
I20P    2.59
V14N    2.62
T6L    1.73
F8L    2.91
H23K    2.21
N19T    1.35
S17F    4.06
K4N    1.98
F8Y    2.08
L7A    4.2
V13C    2.57
S12T    1.71
V13L    2.02
V13F    2.03
L7G    4.28
V13I    2.51
V13P    3.99
C9S    4.52
V18M    2.05
S12F    2.22
V11P    4.58
S21Y    1.85
K4P    2.27
S21P    2.29
V14I    2.56
E10T    3.3
T24F    1.74
L7Y    2.72
I20S    3.04
D3N    2.44
Q15E    3.4
S21R    2.47
C9D    4.71
S21H    1.61
S12Q    1.73
S17P    2.85
I20F    1.31
D3R    2.05
D16G    2.01
D3V    1.8
V18N    2.99
L5G    3.07
D2Q    3.11
E10P    3.44
D16E    1.33
Q15D    3.19
K4C    1.56
F8S    3.96
N19G    1.74
T6M    1.79
N19R    1.2
Q15F    3.28
S21I    3.25
K4D    2.81
L7I    1.25
